Where do these numbers come from? They come from PubChem BioAssay.

Assay: antimalarial activity against Dd2 strain (AID 2302);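 further: 0% = DMSO untreated growth and 100% = chloroquine plus artemisinin killed control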
Conditions: P. falciparum Dd2 in RBCs, LDH growth readout, 72 h; at 2 µM; stronger effect = higher value
Observed property: growth inhibition (%)

>  <Compound>
CCOC(=O)c1c(C)noc1Nc1ccc(OC)cc1

>  <Observed property>
growth inhibition

>  <Measurement>
-6

$$$$
>  <Compound>
O=S(=O)(Nc1ccc(CCN2CCCCC2CCN2CCCC2)cc1)c1ccc(-c2ccccc2)cc1 (centres undefined)

>  <Observed property>
growth inhibition

>  <Measurement>
18

$$$$
>  <Compound>
COc1cc(C)c(NC(=O)c2cccc3c(=O)c(C)c(-c4ccccc4)oc23)cc1OC

>  <Observed property>
growth inhibition

>  <Measurement>
32

$$$$
>  <Compound>
CC(=O)Nc1ccc(C(=O)Nc2cccc(-c3cccc(-c4nc5c(C)cccc5[nH]4)c3)c2)cn1

>  <Observed property>
growth inhibition

>  <Measurement>
100

$$$$
>  <Compound>
C[C@@H](NCCc1cccc(Cl)c1)[C@@H](O)c1ccc(OCCCCCCOc2ccc([C@H](O)[C@@H](C)NCCc3cccc(Cl)c3)cc2)cc1

>  <Observed property>
growth inhibition

>  <Measurement>
100

$$$$
>  <Compound>
OCc1ccc2nc3c(cc2c1)-c1cccc2cccc-3c12

>  <Observed property>
growth inhibition

>  <Measurement>
-1

$$$$
>  <Compound>
CC(C)c1ccc(OCC(O)CN(C)C(C)C(O)c2ccccc2)c(Br)c1 (centres undefined)

>  <Observed property>
growth inhibition

>  <Measurement>
97

$$$$
>  <Compound>
CCN(CC)CCN(Cc1ccc(-c2ccc(Cl)cc2)cc1)C(=O)Cn1cc(CN(C)C)c(=O)nc1SCc1ccc(F)cc1

>  <Observed property>
growth inhibition

>  <Measurement>
99

$$$$
>  <Compound>
Clc1ccc(CNC2CCN(CC3CCCCC3)CC2)cc1

>  <Observed property>
growth inhibition

>  <Measurement>
15

$$$$
>  <Compound>
COCCCNc1sc(S(=O)(=O)c2ccccc2)nc1S(=O)(=O)c1ccc(C)cc1

>  <Observed property>
growth inhibition

>  <Measurement>
44

$$$$
>  <Compound>
Cc1nc2c(c(O)c1Cl)-c1ccc(Oc3cccc(C(F)(F)F)c3)cc1C2=O

>  <Observed property>
growth inhibition

>  <Measurement>
95

$$$$
>  <Compound>
CCC(Cc1ccccc1)c1cc(O)c(Cc2ccc(-c3ccccc3)cc2)c(=O)o1 (centres undefined)

>  <Observed property>
growth inhibition

>  <Measurement>
-3

$$$$
>  <Compound>
Cc1cc(NC(=O)c2cccs2)ccc1OC1CCN(Cc2ccc(C#N)cc2)C1 (centres undefined)

>  <Observed property>
growth inhibition

>  <Measurement>
61

$$$$
>  <Compound>
CCCCCN1CCCN(Cc2cccc(NC(=O)c3ccc(-c4ccccc4)cc3)c2)CC1

>  <Observed property>
growth inhibition

>  <Measurement>
15

$$$$
>  <Compound>
O=[N+]([O-])c1cccc(CNCC2CCN(Cc3ccc(C(F)(F)F)cc3)CC2)c1

>  <Observed property>
growth inhibition

>  <Measurement>
23

$$$$
>  <Compound>
CC(C)c1ccc(CN2CCC(CNC(=O)c3cc(-c4cccc(F)c4)cs3)C2)cc1 (centres undefined)

>  <Observed property>
growth inhibition

>  <Measurement>
46

$$$$
>  <Compound>
COc1cc(NCC(O)CNc2cc(Cl)nc3ccccc23)nc2ccccc12 (centres undefined)

>  <Observed property>
growth inhibition

>  <Measurement>
99

$$$$
>  <Compound>
CC1(C)N=C(N)N=C(N)N1OCCCOc1c(Cl)cc(Cl)cc1Cl

>  <Observed property>
growth inhibition

>  <Measurement>
97

$$$$
>  <Compound>
Cc1cnn(-c2cccc(C(=O)NC3CCC(CCN4CCc5ccc(C#N)cc5CC4)CC3)c2)c1 (centres undefined)

>  <Observed property>
growth inhibition

>  <Measurement>
48

$$$$
>  <Compound>
COc1cccc(OC)c1C(=O)N1CCC2(CC1)C(=O)N(CC(=O)NC1CCCCC1)CN2c1ccccc1

>  <Observed property>
growth inhibition

>  <Measurement>
91

$$$$
>  <Compound>
CC(C)CN(c1nc(C(=O)NNC(=O)[C@H](CC2CC2)NC(=O)c2cc3cc(OCCN(C)C)ccc3o2)cs1)C1CC1

>  <Observed property>
growth inhibition

>  <Measurement>
97

$$$$
>  <Compound>
c1ccc(COc2ccc(COc3ccc(Cn4ccnc4)cc3)cc2)cc1

>  <Observed property>
growth inhibition

>  <Measurement>
45

$$$$
>  <Compound>
CN(C)C(=O)n1cnc(S(=O)(=O)N(C)c2ccc(Cl)cc2)n1

>  <Observed property>
growth inhibition

>  <Measurement>
80

$$$$
>  <Compound>
Cc1cccc2[nH]c(-c3cccc(-c4ccc(NC(=O)c5cnn6cccnc56)cc4)c3)nc12

>  <Observed property>
growth inhibition

>  <Measurement>
73

$$$$
>  <Compound>
Cc1ccc(NC(=O)c2c(C)noc2-c2snnc2C)cc1

>  <Observed property>
growth inhibition

>  <Measurement>
71

$$$$
>  <Compound>
C=CCOC(=O)N1CCC(CNCc2ccc(-c3cccc(-c4nc5ccccc5[nH]4)c3)cc2)C1 (centres undefined)

>  <Observed property>
growth inhibition

>  <Measurement>
50

$$$$
>  <Compound>
Clc1ccc(OCCC2CCN(CCCCCCCN3CCC(CCOc4ccc(Cl)c(Cl)c4)CC3)CC2)cc1Cl

>  <Observed property>
growth inhibition

>  <Measurement>
82

$$$$
>  <Compound>
COc1ccc(CCN(C)CCCCc2ccc(NC(=O)c3cccc4c(=O)c5cc(F)ccc5sc34)cc2)cc1OC

>  <Observed property>
growth inhibition

>  <Measurement>
49

$$$$
>  <Compound>
CC(=O)Nc1ccc(OCCCCN(Cc2ccccc2C(F)(F)F)c2ccc(C#N)c(C(F)(F)F)c2)c(Cl)c1

>  <Observed property>
growth inhibition

>  <Measurement>
71

$$$$
>  <Compound>
O=c1cc(NCCC(CNCc2ccc(Br)o2)NCc2cc(Br)cc(Br)c2)[nH]c2ccccc12 (centres undefined)

>  <Observed property>
growth inhibition

>  <Measurement>
90

$$$$
>  <Compound>
O=C1Nc2cccc3c2C1(CCCN1CCC(c2c[nH]c4cc(C(F)(F)F)ccc24)CC1)CCC3 (centres undefined)

>  <Observed property>
growth inhibition

>  <Measurement>
37

$$$$
>  <Compound>
CCOc1ccc(C(C)NC(=O)Nc2ccccc2)cc1OCC (centres undefined)

>  <Observed property>
growth inhibition

>  <Measurement>
95

$$$$
>  <Compound>
O=C1NC(c2ccccc2)C2(CCN(CC(O)COc3cccc4ncccc34)CC2)O1 (centres undefined)

>  <Observed property>
growth inhibition

>  <Measurement>
95

$$$$
>  <Compound>
O=C(/C=C/c1ccc(-c2nc3ccc(Cl)cc3[nH]2)cc1)NC1CCN(Cc2ccccc2)CC1

>  <Observed property>
growth inhibition

>  <Measurement>
92

$$$$
>  <Compound>
C=C(NC(=O)C1CCCCC1)C(=O)OC

>  <Observed property>
growth inhibition

>  <Measurement>
3

$$$$
>  <Compound>
Cc1[nH]c(C)c(-c2ccc(-c3cccc(C(F)(F)F)c3)nc2)c(=O)c1Br

>  <Observed property>
growth inhibition

>  <Measurement>
96

$$$$
>  <Compound>
Cc1cccc2[nH]c(-c3cccc(-c4ccc(NC(=O)Nc5ccc6c(c5)OCO6)cc4)c3)nc12

>  <Observed property>
growth inhibition

>  <Measurement>
86

$$$$
>  <Compound>
COc1ccc2c(=O)c(C3CCC(c4ccc(Cl)cc4)CC3)c(C)[nH]c2c1 (centres undefined)

>  <Observed property>
growth inhibition

>  <Measurement>
84

$$$$
>  <Compound>
O=C1CCCN1CCCNCc1ccc(-c2cccc(-c3nc4ccc(F)cc4[nH]3)c2)cc1

>  <Observed property>
growth inhibition

>  <Measurement>
8

$$$$

---

Experiment: human hepatoma cell viability loss – ATP luminescence, cytotoxicity control for P. falciparum antimalarial project, primary screen (AID 2303);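 further: 0% = DMSO wells and 100% = digitonin-killed cells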
Conditions: HepG2 viability, 24-48 h, at 10 µM, stronger effect = higher value
Response field label: string, one of T (inhibition strictly below 10%) or F.

>  <Compound>
O=C(NC1CCN(c2ccnc3ccccc23)C1)c1ccc(OC(F)(F)F)cc1 (centres undefined)

>  <Answer label>
F

$$$$
>  <Compound>
Cc1ccc(Cn2cnc(N3CC(C)NC(C)C3)cc2=O)cc1NC(=O)Nc1ccc(-c2ccccc2)cc1 (centres undefined)

>  <Answer label>
F

$$$$
>  <Compound>
CCNc1cc(C(=O)N[C@@H](Cc2ccccc2)[C@H](O)CN[C@H](C)C(C)(C)C)cc(N2CCCCS2(=O)=O)c1

>  <Answer label>
T

$$$$
>  <Compound>
O=C(C=NO)Nc1ccccc1[N+](=O)[O-]

>  <Answer label>
T

$$$$
>  <Compound>
CS(=O)(=O)c1ccc(CNCc2cccc(-c3cccc(-c4nc5ccccc5[nH]4)c3)c2)cc1

>  <Answer label>
T

$$$$
>  <Compound>
CCc1ccccc1NC(=O)CN1CCN(c2ncnc3scc(-c4ccc(F)cc4)c23)CC1

>  <Answer label>
T

$$$$
>  <Compound>
C[C@@H]([C@@H](CCCCc1ccccc1)C(=O)N[C@H](C(=O)Nc1cccnc1)C(C)(C)C)N(O)C=O

>  <Answer label>
T

$$$$
>  <Compound>
Cc1cccc(CN2CCC(Oc3ccc(NC(=O)c4cccs4)cc3Cl)CC2)n1

>  <Answer label>
F

$$$$
>  <Compound>
Nc1cc(-c2cc3c(OCc4ccccc4)cccc3[nH]2)ccn1

>  <Answer label>
F

$$$$
>  <Compound>
Cc1c(C(=O)[C@@H]2C[C@H]2CN2CCC(N3CCCCC3)CC2)sc2ccccc12

>  <Answer label>
F

$$$$
>  <Compound>
COc1ccc(C(=O)COc2cccc(/C=C/C(=O)O)c2)cc1OC

>  <Answer label>
F

$$$$
>  <Compound>
COc1ccc(CNCc2ccccc2)cc1-c1ccc(S(=O)(=O)NCCN2CCCC2)c(C)c1

>  <Answer label>
F

$$$$
>  <Compound>
Cc1ccc(N2CCc3c(-c4cc5cccnc5nc4C)cc(C)nc32)c(Cl)c1

>  <Answer label>
T

$$$$
>  <Compound>
CCN1CCN(Cc2ccc(-c3ccc(NS(=O)(=O)c4cccc5cccnc45)cc3)cc2)CC1

>  <Answer label>
F

$$$$
>  <Compound>
CC(C)c1ccc2c(c1)c(SC(C)(C)C)c(CC(C)(C)C#N)n2Cc1ccc(Cl)cc1

>  <Answer label>
T

$$$$
>  <Compound>
COc1ccccc1CCNc1nccc(N[C@@H](Cc2ccccc2)C(=O)NCc2cccs2)n1

>  <Answer label>
F

$$$$
>  <Compound>
N=c1c(C(=O)NCc2ccccc2)cc2c(=O)n3ccccc3nc2n1CCc1ccccc1

>  <Answer label>
T

$$$$
>  <Compound>
N#Cc1cccc(NC(=O)c2ccc(S(=O)(=O)NCC3CCCN3CC3CCCCC3)cc2)c1 (centres undefined)

>  <Answer label>
F

$$$$
